Assay: Solubility at 25 degC of compound (diluted from DMSO) in FeSSIF at pH 5.0 (11.2 g/l of SIF powder [Na-taurocholate: 15.0mM, Lecithin:3.75mM, Pancreatin:40mg/ml], 4.04 g/l of NaOH, 8.65 g/l Glacial Acetic Acid, 11.87 g/l NaCl) determined after 24h (1h sonication, 22h shaking, 1h sonication) by LCMS/MS
Type: physicochemical

| line-notation | solubility kinetic at 24 h |
| --- | --- |
| CCc1nc2cnc(-c3ccc(F)c(C(F)(F)C(F)(F)F)c3)cn2c1-c1c(F)cc(O)cc1F | 200 µM |

* * *

Test: Plasma protein binding determined at 10uM by LC-MS/MS.
Type: ADME, cell-free
Details: human

| line-notation | Binding, % |
| --- | --- |
| CCc1nc2cnc(-c3ccc(F)c(C(F)(F)C(F)(F)F)c3)cn2c1-c1c(F)cc(O)cc1F | 99.9955 |
| Oc1cc(F)c(-c2c(C3CC3)nc3cnc(-c4ccc(F)c(C(F)(F)F)c4)cn23)c(F)c1 | 100 |
| Fc1ccc(-c2cn3c(-c4ccc5[nH]ncc5c4F)c(C4CC4)nc3cn2)cc1C(F)(F)F | 100 |
| CC(C)c1nn2cnc(-c3cccc(C(F)(F)F)c3)cc2c1-c1c(F)cc(O)cc1F | 100 |
| CC(C)c1nc2cnc(-c3cccc(C(F)(F)F)c3)cn2c1-c1ccc2[nH]ncc2c1F | 99.997 |
| Cc1nc2cnc(-c3ccc(F)c(C(F)(F)F)c3)cn2c1-c1c(F)cc(O)cc1F | 99.9645 |

* * *

Assay: Concentration required to kill 50% HepG2 cells as detected by MTT staining
Format: toxicity, cell-based
Conditions: homo sapiens, read-out: TC50 (the source's name)
Define the label as T when CC50 is strictly less than 9 µM and as F in all remaining cases.

| line-notation | label-value |
| --- | --- |
| CC(C)c1cc(-c2cn3c(-c4ccc5[nH]ncc5c4F)c(C(F)(F)F)nc3cn2)ccc1F | F |
| COc1ccc(-c2c(C(F)(F)F)nc3cnc(-c4cccc(C(F)(F)C(F)(F)F)c4)cn23)cc1O | F |
| Cc1nc2cnc(-c3ccc(F)c(C(F)(F)F)c3)cn2c1-c1ccc(O)cc1F | F |
| CC(C)c1cccc(-c2cn3c(-c4ccc(O)c(F)c4)cnc3cn2)c1 | F |
| CC(C)c1cc(-c2cn3c(-c4ccc5[nH]ncc5c4F)c(C4CC4)nc3cn2)ccc1F | F |
| COc1cc(-c2cnc3cnc(-c4cccc(C(C)C)c4)cn23)ccc1O | F |
| Cc1nc2cnc(-c3ccc(F)c(C(F)(F)F)c3)cn2c1-c1c(F)cc(O)cc1F | T |
| Cc1nc2cnc(-c3cccc(C(F)(F)C(F)(F)F)c3)cn2c1-c1c(F)cc(O)cc1F | F |
| CC(C)c1nc2cnc(-c3ccc(F)c(C(F)(F)F)c3)cn2c1-c1c(F)cc(O)cc1F | T |
| Fc1ccc(-c2cn3c(-c4ccc5[nH]ncc5c4F)c(C4CC4)nc3cn2)cc1C(F)(F)F | F |
| Fc1ccc(-c2cn3c(-c4ccc5[nH]ncc5c4F)c(C(F)(F)F)nc3cn2)cc1CC(F)(F)F | T |
| Cc1nc2cnc(-c3cccc(C(F)(F)F)c3)cn2c1-c1c(F)cc(O)cc1F | T |
| Fc1ccc(-c2cn3c(-c4ccc5[nH]ncc5c4F)c(C(F)(F)F)nc3cn2)cc1C1CC1 | F |
| Oc1cc(F)c(-c2cnc3cnc(-c4cccc(C(F)(F)F)c4)cn23)c(F)c1 | F |
| CC(C)c1nc2cnc(-c3ccc(F)c(C(F)(F)F)c3)cn2c1-c1c(F)cc(OP(=O)(O)O)cc1F | T |
| CC(C)c1cc(-c2cn3c(-c4ccc5[nH]ncc5c4F)c(C4CCC4)nc3cn2)ccc1F | F |
| CC(C)c1cccc(-c2cn3c(-c4ccc5[nH]ncc5c4F)c(C(F)(F)F)nc3cn2)c1 | F |
| CCc1nc2cnc(-c3cccc(C(F)(F)F)c3)cn2c1-c1ccc(OC)c(O)c1 | F |
| Fc1c(-c2c(C(F)(F)F)nc3cnc(-c4ccnc(C(F)(F)F)c4)cn23)ccc2[nH]ncc12 | T |

* * *

Items are presented alongside their recorded remaining at 0.5 h, 1 µM.
Test: Percentage of parent compound remaining after incubation for 30 minutes with cyropreserved mouse hepatocytes at a concentration of 1uM compound and […], determined by LCMS
Type: ADME, tissue-based, Hepatocyte
Settings: cryopreserved mouse hepatocytes, read-out: Stability

| line-notation | remaining at 0.5 h, 1 µM |
| --- | --- |
| CC(C)c1nc2cnc(-c3cccc(C(F)(F)F)c3)cn2c1-c1ccc2[nH]ncc2c1F | 93.9% |
| Oc1cc(F)c(-c2c(C3CC3)nc3cnc(-c4ccc(F)c(C(F)(F)F)c4)cn23)c(F)c1 | 83.8% |
| CC(C)c1nn2cnc(-c3cccc(C(F)(F)F)c3)cc2c1-c1c(F)cc(O)cc1F | 95.9% |
| COc1ccc(-c2cnc3cnc(-c4cccc(C(C)C)c4)cn23)cc1O | 26.4% |
| CC(C)c1nc2cnc(-c3cccc(C(F)(F)F)c3)cn2c1-c1ccc(O)cc1F | 54.4% |
| Oc1ccc(-c2cnc3cnc(-c4cccc(C(F)(F)F)c4)cn23)c(F)c1 | 32.9% |
| COc1ccc(-c2c(C3CC3)nc3cnc(-c4cccc(C(F)(F)F)c4)cn23)cc1O | 41.3% |

* * *

Experiment: Solubility at 25 degC of compound (diluted from DMSO) in PBS at pH 7.4 determined after 24h (1h sonication, 22h shaking, 1h sonication) by LCMS/MS
Assay type: physicochemical
Items are presented alongside their recorded solubility kinetic at 24 h.

| line-notation | solubility kinetic at 24 h, µM |
| --- | --- |
| CC(C)c1cccc(-c2cn3c(-c4ccc(O)cc4)cnc3cn2)c1 | 0.383 |
| CCc1nn2cnc(-c3ccc(F)c(C(F)(F)F)c3)cc2c1-c1c(F)cc(O)cc1F | 1.21 |
| COc1ccc(-c2c(C(C)C)nc3cnc(-c4ccnc(N(C)C)c4)cn23)cc1O | 0.467 |
| Oc1ccc(-c2c(C(F)(F)F)nc3cnc(-c4cccc(C(F)(F)F)c4)cn23)c(F)c1 | 17.1 |
| COc1ccc(-c2cnc3cnc(-c4cccc(C(C)C)c4)cn23)cc1OC | 2.62 |

* * *

Items are presented alongside their recorded CC50.
Test: Concentration required to kill 50% MRC-5 cells as detected by Alamar blue staining
Assay type: toxicity, cell-based, MRC5
Conditions: homo sapiens, read-out: TC50 (the source's name)

| molecule | op | CC50 [µM] |
| --- | --- | --- |
| CC(C)c1cccc(-c2cn3c(-c4ccc(O)c(F)c4)cnc3cn2)c1 | > | 50 |
| COc1ccc(-c2cnc3cnc(-c4cccc(Cl)c4)cn23)cc1 | > | 50 |
| COc1ccc(-c2cnc3cnc(-c4cccc(OC)c4)cn23)cc1 | > | 49.9 |
| CC(C)Oc1cccc(-c2cn3c(-c4ccnc(C(F)(F)F)c4)cnc3cn2)c1 | > | 49.2 |
| Cc1nc2cnc(-c3cccc(C(C)C)c3)cn2c1-c1ccc(O)cc1 | > | 50 |
| CC(C)Oc1cccc(-c2ccc3nnc(-c4ccc(O)cc4)n3c2)c1 | > | 50 |
| O=C(C1CCCCC1)N1CC(=O)N2CCc3ccccc3C2C1 (centres undefined) | > | 50 |
| CC(C)c1cccc(-c2ccc3nnc(-c4cccc(NS(C)(=O)=O)c4)n3c2)c1 | > | 50 |
| COc1ccc(-c2cnc3cnc(-c4cccc(C(C)C)c4)cn23)cc1O | = | 18.6 |
| CCc1nc2cnc(-c3cccc(C(F)(F)F)c3)cn2c1-c1ccc(OC)c(O)c1 | > | 50 |
| COc1ccc(-c2cnc3cnc(-c4ccc(N5CCN(C)CC5)nc4)cn23)cc1 | = | 20.9 |
| Oc1cc(F)c(-c2cnc3cnc(-c4cccc(C(F)(F)F)c4)cn23)c(F)c1 | = | 8.13 |
| COc1ccc(-c2cnc3cnc(-c4cccc(OC(C)C)c4)cn23)c(OC)c1 | > | 48.9 |
| COc1ccc(-c2nnc3ccc(-c4cccc5c4OCC5)cn23)cc1OC | = | 27.6 |
| CC(C)c1cccc(-c2cn3c(-c4ccc(O)cc4)cnc3cn2)c1 | = | 30 |
| Oc1ccc(-c2cnc3ccc(-c4cccc(C(F)(F)F)c4)nn23)c(F)c1 | > | 50 |
| Oc1ccc(-c2cnc3cnc(-c4cccc(C(F)(F)F)c4)cn23)c(F)c1 | > | 38.3 |
| COc1ccc(-c2c(C(C)C)nc3cnc(-c4cccc(C(F)(F)F)c4)cn23)cc1O | = | 21.9 |
| COc1ccc(-c2nnc3ccc(-c4cccc(C(C)C)c4)cn23)cn1 | = | 45.8 |
| Cc1nc2cnc(-c3ccc(F)c(C(F)(F)F)c3)cn2c1-c1ccc(O)cc1F | = | 15.8 |
| CC(C)Oc1cccc(-c2cn3c(-c4ccc5[nH]ncc5c4)cnc3cn2)c1 | = | 22.2 |
| CC(C)c1nc2cnc(-c3cccc(C(F)(F)F)c3)cn2c1-c1ccc(O)cc1F | = | 14.5 |
| CC(C)Oc1cccc(-c2cn3c(-c4cnn(Cc5ccccc5)c4)cnc3cn2)c1 | = | 39.4 |
| COc1cc(-c2cnc3cnc(-c4cccc(C(C)C)c4)cn23)ccc1O | > | 50 |

# credit: ChEMBL document CHEMBL4651341
